Values from patent US20260306640A1

// reported DC50 for each item listed
target: KAT2B (Homo sapiens, UniProt Q92831); experiment: KAT2B degradation, Western Blot (Jess), NCI-H1048 cells; type: cell-based; design: degrader, Western blot (Jess); details: NCI-H1048 cells, KAT2B, 24 h, Western Blot, vs DMSO; read-out: KAT2B NCI-H1048 DC50
Sequence (Q92831 whole entry): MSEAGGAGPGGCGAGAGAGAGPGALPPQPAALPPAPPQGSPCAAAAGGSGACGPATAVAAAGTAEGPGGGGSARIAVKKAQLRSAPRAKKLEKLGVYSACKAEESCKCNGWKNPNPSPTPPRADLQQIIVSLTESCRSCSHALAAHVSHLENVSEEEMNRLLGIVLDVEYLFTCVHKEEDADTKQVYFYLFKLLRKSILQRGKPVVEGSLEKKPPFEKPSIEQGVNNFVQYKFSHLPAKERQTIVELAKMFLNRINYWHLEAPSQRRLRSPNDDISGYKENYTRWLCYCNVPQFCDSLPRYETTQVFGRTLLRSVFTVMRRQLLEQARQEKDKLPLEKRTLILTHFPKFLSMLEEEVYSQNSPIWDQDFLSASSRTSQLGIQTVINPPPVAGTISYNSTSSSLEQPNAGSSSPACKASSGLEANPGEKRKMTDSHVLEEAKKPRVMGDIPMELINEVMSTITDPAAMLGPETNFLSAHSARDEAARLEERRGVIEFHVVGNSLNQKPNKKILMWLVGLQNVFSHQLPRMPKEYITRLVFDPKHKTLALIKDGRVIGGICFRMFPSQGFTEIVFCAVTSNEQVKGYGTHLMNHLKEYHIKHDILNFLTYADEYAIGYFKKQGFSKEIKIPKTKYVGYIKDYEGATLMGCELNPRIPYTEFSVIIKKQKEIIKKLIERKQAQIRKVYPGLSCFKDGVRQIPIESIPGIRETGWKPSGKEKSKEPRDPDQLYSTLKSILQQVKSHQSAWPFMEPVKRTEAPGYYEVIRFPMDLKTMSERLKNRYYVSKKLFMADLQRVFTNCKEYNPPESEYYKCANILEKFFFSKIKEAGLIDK

MOLECULE	DC50
CN1C[C@H](Nc2cnn(C)c(=O)c2Cl)C[C@H](c2ccc(C(=O)N3CCC4(CC3)CCN(c3ccc(C5CCC(=O)NC5=O)cc3C(F)(F)F)CC4)cc2)C1 (some centres unmarked)	1 to 30 nM
Cc1c(C2CCC(=O)NC2=O)ccc(N2CCC3(CCN(C(=O)c4ccc([C@H]5C[C@@H](Nc6cnn(C)c(=O)c6Br)CN(C)C5)cc4)CC3)CC2)c1F (some centres unmarked)	1 to 30 nM
CN1C[C@H](Nc2cnn(C)c(=O)c2Br)C[C@H](c2ccc(CN3CCN(c4cc(C5CCC(=O)NC5=O)c(F)cc4F)CC3)cc2)C1 (some centres unmarked)	> 30 nM
CN1C[C@H](Nc2cnn(C)c(=O)c2Cl)C[C@H](c2ccc(C(=O)N3CCC4(CC3)CCN(c3cnn(C5CCC(=O)NC5=O)c3)CC4)cc2)C1 (some centres unmarked)	> 30 nM
CN1C[C@H](Nc2cnn(C)c(=O)c2Cl)C[C@H](c2ccc(CN3CCN(c4cccc(C5CCC(=O)NC5=O)c4)CC34CC4)cc2)C1 (some centres unmarked)	> 30 nM
CN1C[C@H](Nc2cnn(C)c(=O)c2Cl)C[C@H](c2ccc(CN3CCN(c4cccc(C5CCC(=O)NC5=O)c4)CC3)cc2)C1 (some centres unmarked) [Compound 162]	1 to 30 nM
Cc1cc(N2CCC3(CCN(C(=O)c4ccc([C@H]5C[C@@H](Nc6cnn(C)c(=O)c6Cl)CN(C)C5)cc4)CC3)CC2)cc(C)c1C1CCC(=O)NC1=O (some centres unmarked)	< 1 nM
Cc1c(N[C@@H]2C[C@H](c3ccc(C(=O)N4CCC5(CC4)CCN(c4ccc(C6CCC(=O)NC6=O)cc4OC(F)(F)F)CC5)cc3)CN(C)C2)cnn(C)c1=O (some centres unmarked)	> 30 nM
CN1C[C@H](Nc2cnn(C)c(=O)c2Br)C[C@H](c2ccc(C(=O)N3CC(C#Cc4ccc(C5CCC(=O)NC5=O)cc4)C3)cc2)C1 (some centres unmarked) [Compound 335]	> 30 nM
CN1C[C@H](Nc2cnn(C)c(=O)c2Cl)C[C@H](c2ccc(CN3CCC(Oc4ccc(C5CCC(=O)NC5=O)cc4)CC3)cc2)C1 (some centres unmarked)	1 to 30 nM
Cc1c(N[C@@H]2C[C@H](c3ccc(C(=O)N4CCC5(CC4)CCN(c4ccc(C6CCC(=O)NC6=O)cc4F)CC5)cc3)CN(C)C2)cnn(C)c1=O (some centres unmarked)	1 to 30 nM
CN1C[C@H](Nc2cnn(C)c(=O)c2Br)C[C@H](c2ccc(C(=O)N3CCN(Cc4cnn(C5CCC(=O)NC5=O)c4)CC3)cc2)C1 (some centres unmarked)	> 30 nM
Cc1c(N2CCC3(CCN(C(=O)c4ccc([C@H]5C[C@@H](Nc6cnn(C)c(=O)c6Br)CN(C)C5)cc4)CC3)CC2)ccc(C2CCC(=O)NC2=O)c1F (some centres unmarked)	< 1 nM
Cc1cc(N2CCC3(CC2)CN(C(=O)c2ccc([C@H]4C[C@@H](Nc5cnn(C)c(=O)c5Br)CN(C)C4)cc2)C3)ccc1C1CCC(=O)NC1=O (some centres unmarked)	1 to 30 nM
COc1cc(N2CCC3(CCN(C(=O)c4ccc([C@H]5C[C@@H](Nc6cnn(C)c(=O)c6Cl)CN(C)C5)cc4)CC3)CC2)c(C)cc1C1CCC(=O)NC1=O (some centres unmarked)	> 30 nM
Cc1c(N[C@@H]2C[C@H](c3ccc(CN4CCN(c5cccc(C6CCC(=O)NC6=O)c5)CC45CC5)cc3)CN(C)C2)cnn(C)c1=O (some centres unmarked)	> 30 nM
Cc1cc(OC2CCN(C(=O)c3ccc([C@H]4C[C@@H](Nc5cnn(C)c(=O)c5Br)CN(C)C4)cc3)CC2)ccc1C1CCC(=O)NC1=O (some centres unmarked)	> 30 nM
